- assay procedure: yeast display, Sf9 membrane polyspecificity reagent, FACS + sequencing; frameworks hold sequencing errors
measured metric: polyreactivity (PSR sort gate)

[
  {
    "seq string": "QVQLVESGGGLVQAGGSLRLSCAASGSTFVKYVMGRYRQAPGKERELVAAISRSSVRTYYADSVKGRFTISRDNAKNTVYLQMNSLKPEDTAVYYCAVVLSTYSYADYDYWGQGTLVTVSS",
    "measured metric": "polyreactivity (PSR sort gate)",
    "result": "high polyreactivity"
  },
  {
    "seq string": "QVQLVESGGGLVQAGGSLRLSCAASGRLFTGNAMGWYRQAPGKERELVADINRTGGSPYYADSVKGRFTISRDNAKNTVYVQLNSLKPVDTAVYDCAAYVPWGWRYGYNYWGQGTQVTVSS",
    "measured metric": "polyreactivity (PSR sort gate)",
    "result": "high polyreactivity"
  },
  {
    "seq string": "QVQLVESGGGLVQAGGSLRLSCAASGSTIEFNAMGWYRQAPGKERELVAAISGSGASTYYADSVKGRFTISRDNAKNTVYVQMNSLKPEDTAVYYCNADSLYYDYQTVDVQALDYWGQGTQVTVSS",
    "measured metric": "polyreactivity (PSR sort gate)",
    "result": "low polyreactivity"
  },
  {
    "seq string": "QVQLVESGVGLVQAGGSLRLSCAASGITFDENTMGWYIQAPGKERELVAAITEIGGSTYYADSVKGRFTISRDNAKNTVYLQMNSLKPEDTAVYYCNADRWVVRFVDYEYWGQGTQVTVSS",
    "measured metric": "polyreactivity (PSR sort gate)",
    "result": "low polyreactivity"
  },
  {
    "seq string": "QVQLVESGGGLVQAGGSLRLSCAASGSIFSGYAMGWYRQAPGKERELVAAITSGGSTDYADSVKGRFTISRDNAKNSVYLQMNSLKPEDTAVYYCAAEGGYSSYGYDYWGQGTQVTVSS",
    "measured metric": "polyreactivity (PSR sort gate)",
    "result": "low polyreactivity"
  },
  {
    "seq string": "QVQLVESGGGLVQAGCSLRLSCAASGFTFFKYAMGWYRQAPGTERELVAAITRNGGRTYYADSVKGRFTISRDNAKNTVYLQMNSLKPEDTAVYYCAARYANLRNGYRYDYWGQGTQVTVSS",
    "measured metric": "polyreactivity (PSR sort gate)",
    "result": "high polyreactivity"
  },
  {
    "seq string": "QVQLVESGVGLVQAGGSLRLSCAASGSTYRYAMGWYRQAPGKERELVAAISRSTGSTYYADSVKGRLTISRDNANNTVNLQMNRLKPEDTAVYYCARDVYYRGYKYGYWGQGTQVTVSS",
    "measured metric": "polyreactivity (PSR sort gate)",
    "result": "high polyreactivity"
  },
  {
    "seq string": "QVQLVESGGGLVQAGGSLRLSCAASGSIFSQYAMGWYRQAPGKERELVAAIRTGGRTHYADSVKGRFTISRDNAKKTVYLQMNSLKPEDTAVYYCAAQARYYWGTTYEYWGQGTQVTVSS",
    "measured metric": "polyreactivity (PSR sort gate)",
    "result": "high polyreactivity"
  },
  {
    "seq string": "QDQLVESGGGLVQAGGSLRLSCAASGSIFGVYAMGWYRQAPGKERELVAVISFNSGSTNYADSVKGRFTISRDNAKNTVYLQMNSLKPEDTAVYYCNSDAWHETQVSGYSWGQGTQVTVSS",
    "measured metric": "polyreactivity (PSR sort gate)",
    "result": "low polyreactivity"
  },
  {
    "seq string": "QVQLVESWGGLVQAGGSLRLSCADSGRTFTVNAMGWYRQAPGKETEFVAAISGRSGRTSYADSVKGRFTISRDNAKNTVYLQMNCLKPEDTAVYYCNASGGYSTGSRYDYWGQGTQVTVSS",
    "measured metric": "polyreactivity (PSR sort gate)",
    "result": "high polyreactivity"
  },
  {
    "seq string": "QVQLVESGGGLVQEGGSLRLSCAASGSTFYIYGMGWYRQAPGKERELVARISSGGSTYADSVKGRFTISRDNAKNTVYLQMYSLKPEDTAVYYCAAAAARTYRRYRYEGYFYWGQGTQVTVSS",
    "measured metric": "polyreactivity (PSR sort gate)",
    "result": "high polyreactivity"
  }
]

Taken from the nanobody polyreactivity screen of Harvey et al. (2022).
